The entries below are paired with their reported Effects Corn.
# Tested on: corn
# procedure_summary: Soil treatment test for upland field
# Type: in vivo
# Parameters: key: 0 = normal development, 5 = all killed
# condition_details: 500 g/ha, 3 weeks, glass house 25° C.
Respond numerically, and do not add a unit to the figure.

Example entries begin here.
Could you share what Effects Corn was measured for CCC(=Cc1cccc(C(F)(F)F)c1)c1nc2cc(C#N)c(Cl)cc2o1 , tested on corn?
1

Could you share what Effects Corn was measured for CCCC(=Cc1cccc(C(F)(F)F)c1)c1nc2cc(F)c(F)cc2o1 , tested on corn?
2

Could you share what Effects Corn was measured for CCCC(=Cc1cccc(C(F)(F)F)c1)c1nc2cc(Cl)ccc2o1 , tested on corn?
2

Could you share what Effects Corn was measured for CCC(=Cc1cccc(C(F)(F)F)c1)c1nc2cc(F)ccc2o1 , tested on corn?
1

Could you share what Effects Corn was measured for CCCC(=Cc1cccc(C(F)(F)F)c1)c1nc2cc(C#N)c(Cl)cc2o1 , tested on corn?
0

New cases:
Could you share what Effects Corn was measured for CCCC(=Cc1cccc(C(F)(F)F)c1)c1nc2cc(C(F)(F)F)ccc2o1 , tested on corn?
3

Could you share what Effects Corn was measured for CC/C(=C\c1ccc(F)c(C(F)(F)F)c1)c1nc2cc(Cl)ccc2o1 , tested on corn?
1

Could you share what Effects Corn was measured for CCC(Oc1cc(C(F)(F)F)on1)c1nc2cc(C#N)c(F)cc2o1 (stereo not drawn) , tested on corn?
1

Could you share what Effects Corn was measured for CCC(Sc1cc(C(F)(F)F)nn1C)c1nc2cc(Cl)ccc2o1 (stereo not drawn) , tested on corn?
0

Could you share what Effects Corn was measured for CCC(=Cc1cccc(C(F)(F)F)c1)c1nc2cc(Cl)c(C)cc2o1 , tested on corn?
1

====

# Test system: common lambsquarters
# procedure_summary: Foliar spread test for upland field
# Type: in vivo, Chenopodium album
# Design: key: 0 = normal development, 5 = all killed (6 ranks vs. untreated)
# condition_details: foliar spray, 500 ppm, 3 weeks, glass house 25° C.
The entries below are paired with their reported Effects Common lambsquarters.

Example entries begin here.
Return reported Effects Common lambsquarters; argument: CC(=Cc1cccc(C(F)(F)F)c1)c1nc2cc(C#N)c(Cl)cc2o1
5

Return reported Effects Common lambsquarters; argument: Fc1ccc2nc(-c3cccc(Oc4ccc(F)c(C(F)(F)F)c4)n3)oc2c1
4

New cases:
Return reported Effects Common lambsquarters; argument: CCCC(=Cc1cccc(C(F)(F)F)c1)c1nc2cc(C#N)c(Cl)cc2o1
5

Return reported Effects Common lambsquarters; argument: COc1ccc2oc(-c3cccc(Oc4cccc(C(F)(F)F)c4)n3)nc2c1
5

Return reported Effects Common lambsquarters; argument: CCC(=Cc1cccc(C(F)(F)F)c1)c1nc2cc(F)c(F)cc2o1
5

Return reported Effects Common lambsquarters; argument: CCC(=Cc1cccc(C(F)(F)F)c1)c1nc2cc(C)ccc2o1
4

Return reported Effects Common lambsquarters; argument: CCC(=Cc1cccc(C(F)(F)F)c1)c1nc2cc(C(F)(F)F)ccc2o1
5

Return reported Effects Common lambsquarters; argument: CCCC(=Cc1cccc(C(F)(F)F)c1)c1nc2cc(C(F)(F)F)ccc2o1
5

====

The entries below are paired with their reported Effects Barnyardgrass.
# System: barnyard grass
# procedure_summary: Herbicidal test for paddy field; further: key: 0: normal development; 1: Less damaged; 2: Slightly damaged; 3: Moderately damaged; 4: Severely damaged; 5: All killed
# Type: in vivo, Eschinochloa crusgalli
# condition_details: 500 g/ha, dropwise addition to paddy water at 1.5 leaf stage of barnyard grass; glass house 25° C., 3 weeks; rank 0-5 vs non-treated district
Respond numerically, and do not add a unit to the figure.

Example entries begin here.
Return reported Effects Barnyardgrass; argument: CCC(=Cc1cccc(C(F)(F)F)c1)c1nc2cc(F)ccc2o1
5

Return reported Effects Barnyardgrass; argument: CCC(=Cc1cccc(C(F)(F)F)c1)c1nc2cc(C)ccc2o1
4

Return reported Effects Barnyardgrass; argument: CCC(=Cc1cccc(C(F)(F)F)c1)c1nc2cc(C#N)c(F)cc2o1
4

Return reported Effects Barnyardgrass; argument: CCC(=Cc1cccc(C(F)(F)F)c1)c1nc2cc(C(F)(F)F)ccc2o1
5

New cases:
Return reported Effects Barnyardgrass; argument: CCC(Oc1cc(C(F)(F)F)nn1C)c1nc2cc(C#N)c(Cl)cc2o1 (centres unmarked)
4

Return reported Effects Barnyardgrass; argument: FC(F)(F)c1cccc(Oc2cccc(-c3nc4cc(Cl)ccc4o3)n2)c1
3
